- assay_text: Microsome stability assay
- Type: in vitro ADME
- setup_conditions: 90 min, 1 µM, pH 7.4
readout: Area rel. [%] (liver microsomes, NC)
Give the figure together with its unit, number first.

Below are worked cases with known answers.
INSERT INTO results (compound, reported_value) VALUES
  ('CCCCCCCC(=O)N[C@@H](Cc1ccc(O)cc1)C(=O)N[C@H](/C=C/C(=O)O)CCCNC(=N)N [drawing 64]', '104.3%'),
  ('CCCCC/C=C/C(=O)N[C@@H](Cc1ccc(O)cc1)C(=O)N[C@H](/C=C/C(=O)O)CCCNC(=N)N [drawing 59]', '92.3%'),
  ('CCCCC/C=C/C(=O)N[C@@H](Cc1ccc(O)cc1)C(=O)N[C@@H](/C=C/C(=O)O)CCCCN [drawing 60]', '95.7%'),
  ('CCCCC/C=C/C(=O)N[C@@H](Cc1ccc(O)cc1)C(=O)N[C@@H](/C=C/C(=O)O)CCCNC(=N)N [drawing 62]', '102.8%'),
  ('CC(=O)N[C@@H](Cc1ccc(O)cc1)C(=O)N[C@H](/C=C/C(=O)O)CCCNC(=N)N [drawing 66]', '111.9%');

Q. If you can, please state the reported Area rel. [%] (liver microsomes, NC) value of CCCCC/C=C/C(=O)N[C@H](Cc1ccc(O)cc1)C(=O)N[C@H](/C=C/C(=O)O)CCCNC(=N)N [drawing 63] .
A. 105.8%

Q. If you can, please state the reported Area rel. [%] (liver microsomes, NC) value of CCCCC/C=C/C(=O)N[C@@H](Cc1ccccc1)C(=O)N[C@H](/C=C/C(=O)O)CCCNC(=N)N [drawing 61] .
A. 89.2%

Q. If you can, please state the reported Area rel. [%] (liver microsomes, NC) value of CCCCCCCC(=O)N[C@@H](Cc1ccc(O)cc1)C(=O)N[C@@H](CCCNC(=N)N)CCC(=O)O [drawing 65] .
A. 99.5%
